The values you see were collected from PubChem BioAssay (NCI).

# Tested on: RPMI-8226 leukemia
# ASSAY PROTOCOL: NCI tumour cell line growth inhibition, 48 h
Reported TGI values follow for various molecules
PROPERTY MEASURED: TGI

>>> observed_value("Cc1ccc(S(=O)(=O)N(CCNC(=O)c2cccc(O)c2O)c2cc3c4c(c2)Oc2cccc5c2C4(C)c2c(cccc2O3)O5)cc1")
"> 100 µM"
>>> observed_value("COc1ccc(-c2c(-c3ccc(C#N)c(F)c3)nc(N3CCC(N)CC3)n(C)c2=O)cc1F")
"49.1 µM"
>>> observed_value("CN1CCN(c2nc(N)c(Br)c(Cl)n2)CC1")
"> 100 µM"
>>> observed_value("COc1ccc2nc3ccccc3c(NCCCCN(CCCl)CCCl)c2c1")
"0.943 µM"
>>> observed_value("CSc1nc(NCc2ccccc2)c2cnn(COCCO)c2n1")
"> 100 µM"
>>> observed_value("O=C(CCc1ccccc1)CC1OC(=O)C(Cl)=C1Cl (stereo unspecified)")
"> 100 µM"
>>> observed_value("O=C1/C(=C/c2ccc(C(F)(F)F)cc2)COc2ccc(O)c(O)c21")
"0.607 µM"
>>> observed_value("O=c1[nH]c(=O)n(C2CC(O)C(CO)O2)cc1Br (stereo unspecified)")
"> 100 µM"
>>> observed_value("COc1ccc2c(c1)/C(=N/OC(C)=O)c1c-2c(OC)nc2ccccc12")
"> 100 µM"
>>> observed_value("O=C(O)c1nn(-c2ccccc2)nc1-c1nn(-c2ccccc2)nc1C(=O)O")
"> 100 µM"
>>> observed_value("Cc1cc(N2CCOCC2)nc(NCc2cc(Nc3ccnc4cc(Cl)ccc34)ccc2F)n1")
"5.96 µM"
>>> observed_value("CC(=O)OCC1OC(N=[N+]=[N-])C(OC(C)=O)C(OC(C)=O)C1OC1OC(COC(C)=O)C(OC(C)=O)C(OC(C)=O)C1OC(C)=O (stereo unspecified)")
"> 100 µM"
>>> observed_value("CC1=C2C=CC(=O)C[C@@]2(C)CCC1")
"> 100 µM"
>>> observed_value("Cc1[nH]c2nccn2c(=O)c1CCO")
"> 10 µM"
>>> observed_value("Cc1c(-c2ccccn2)ccc2ccccc12")
"44.1 µM"
>>> observed_value("NC(=O)c1ncn(C2OC(CO)C(O)C2O)c1O (stereo unspecified)")
"> 100 µM"
